# target_entity: 5-hydroxytryptamine receptor 4 (Homo sapiens)
# Sequence (Q13639 whole entry): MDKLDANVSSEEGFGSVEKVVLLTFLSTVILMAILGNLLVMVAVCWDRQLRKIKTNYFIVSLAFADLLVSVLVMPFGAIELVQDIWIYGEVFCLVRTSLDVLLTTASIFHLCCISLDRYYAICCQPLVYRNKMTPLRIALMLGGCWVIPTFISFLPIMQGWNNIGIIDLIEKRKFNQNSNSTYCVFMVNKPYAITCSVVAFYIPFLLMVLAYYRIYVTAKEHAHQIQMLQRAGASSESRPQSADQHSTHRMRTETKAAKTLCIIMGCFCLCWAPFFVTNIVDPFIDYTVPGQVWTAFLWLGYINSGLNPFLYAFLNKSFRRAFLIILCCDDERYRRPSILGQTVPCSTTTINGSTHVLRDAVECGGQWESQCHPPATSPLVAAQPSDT
# assay_name: Antagonistic activity at human 5HT4 receptor expressed in HEK293 cells assessed as inhibition of 5-HT stimulated ADCY activity after 20 mins
# Assay type: functional, cell-based
experimental_endpoint: pKb
No unit in the answer, please; the number alone is enough.

Please look at this compound and report its pKb: "CC(C)(C)OC(=O)CCCCCN1CCC(CNC(=O)c2c3n(c4ccccc24)CCCO3)CC1"
9.89

Please look at this compound and report its pKb: "CC(C)(C)OC(=O)CCCN1CCC(CNC(=O)c2c3n(c4ccccc24)CCCO3)CC1"
9.47

Please look at this compound and report its pKb: CCCCN1CCC(CNC(=O)c2c3n(c4ccccc24)CCCO3)CC1 [PIBOSEROD]
9.26

Please look at this compound and report its pKb: "O=C(CCCN1CCC(CNC(=O)c2c3n(c4ccccc24)CCCO3)CC1)OCc1ccccc1"
9.85

Please look at this compound and report its pKb: "O=C(CCCCCN1CCC(CNC(=O)c2c3n(c4ccccc24)CCCO3)CC1)OCc1ccccc1"
10.2

Please look at this compound and report its pKb: "O=C(O)CCCCN1CCC(CNC(=O)c2c3n(c4ccccc24)CCCO3)CC1"
8.1
